Test Details: Absorption maximum of the dye
Type: physicochemical
Particulars: solvent PBS pH 7.4
Marks after values point to notes of the source that are not given here.
Measurement Name: λabs

Worked set:
Cc1cc(=O)n(CC(=O)O)c2cc(NCS(=O)(=O)O)c(S(=O)(=O)O)cc12 [Compound 108] = 348^b nm
CN(CCCC(=O)O)C(=O)c1ccccc1C1=c2cc3c(cc2C(C)(C)c2cc4c(cc21)C(CS(=O)(=O)O)CC(C)(C)N4Cc1ccc(S(=O)(=O)O)cc1S(=O)(=O)O)=[N+](Cc1ccc(S(=O)(=O)O)cc1S(=O)(=O)O)C(C)(C)CC3CS(=O)(=O)O (centres unmarked) [Compound 68] = 645^b nm
CC1(C)c2cc3c(cc2N=c2cc4c(cc21)=[N+](CCCC(=O)O)C(C)(C)CC4CS(=O)(=O)O)CCCN3Cc1ccc(S(=O)(=O)O)cc1S(=O)(=O)O (centres unmarked) [Compound 102] = 721^b nm
CC[N+]1=c2cc3c(cc2C(CS(=O)(=O)O)=CC1(C)C)=C(c1ccc(C(=O)O)cc1)c1cc2c(cc1C3(C)C)N(Cc1ccc(S(=O)(=O)O)cc1S(=O)(=O)O)C(C)(C)C=C2CS(=O)(=O)O [Compound 64] = 667^b nm

// query λabs value for entry CC1(C)c2cc(Nc3ccc(S(=O)(=O)O)cc3)ccc2C(c2c(F)c(F)c(SCC(=O)O)c(F)c2F)=c2cc3c(cc21)=[N+](Cc1ccc(S(=O)(=O)O)cc1S(=O)(=O)O)C(C)(C)CC3CS(=O)(=O)O (centres unmarked) [Compound 51]
// result 650^b nm

----------
Test Details: Absorption maximum of the dye
Format: physicochemical
Particulars: solvent water/acetonitrile 1:1
Description: Examples of the compounds according to the invention are listed in Tables 2-6, where the structures as well as the absorption and fluorescence maxima are indicated. The spectra of selected compounds are shown FIGS. 5-18.
Marks after values point to notes of the source that are not given here.
Measurement Name: λabs

CN(CCCC(=O)O)C(=O)c1ccccc1-c1c2cc(S(=O)(=O)O)/c(=N/CCc3ccc(S(=O)(=O)O)cc3)cc-2oc2cc(N)c(S(=O)(=O)O)cc12 = 528^c nm
O=C(O)c1ccccc1-c1c2cc/c(=N/CCc3ccc(S(=O)(=O)O)cc3S(=O)(=O)O)cc-2oc2cc(NCCc3ccc(S(=O)(=O)O)cc3S(=O)(=O)O)ccc12 = 532^c nm
O=C(O)C1CCCN1C(=O)c1ccccc1-c1c2cc(S(=O)(=O)O)/c(=N/Cc3ccc(S(=O)(=O)O)cc3S(=O)(=O)O)cc-2oc2cc(NCc3ccc(S(=O)(=O)O)cc3S(=O)(=O)O)c(S(=O)(=O)O)cc12 (stereo not shown) = 534^c nm

// query # lookup: λabs of CCN(Cc1ccc(S(=O)(=O)O)cc1S(=O)(=O)O)c1ccc2c(-c3ccccc3C(=O)N(C)CCCC(=O)O)c3cc/c(=[N+](\CC)Cc4ccc(S(=O)(=O)O)cc4S(=O)(=O)O)cc-3oc2c1
// result 560^c nm

// query Recorded λabs of O=C(O)c1ccccc1-c1c2cc/c(=N/CCc3ccc(S(=O)(=O)O)cc3)cc-2oc2cc(NCCc3ccc(S(=O)(=O)O)cc3)ccc12 , please.
// result 530^c nm

// query Give its λabs value. Item: CN(CCCC(=O)O)C(=O)c1ccccc1-c1c2cc/c(=N/CCc3ccc(S(=O)(=O)O)cc3S(=O)(=O)O)cc-2oc2cc(NCCc3ccc(S(=O)(=O)O)cc3S(=O)(=O)O)ccc12
// result 539^c nm

// query Which measured λabs value corresponds to CN(CCCC(=O)O)C(=O)c1ccccc1-c1c2cc(S(=O)(=O)O)/c(=N/Cc3ccc(S(=O)(=O)O)cc3S(=O)(=O)O)cc-2oc2cc(NCc3ccc(S(=O)(=O)O)cc3S(=O)(=O)O)c(S(=O)(=O)O)cc12 ?
// result 534^c nm

// query Would you mind telling me what λabs value was observed for CN(CCCC(=O)O)C(=O)c1ccccc1-c1c2cc(S(=O)(=O)O)/c(=N/CCc3ccc(S(=O)(=O)O)cc3)cc-2oc2cc(NCCc3ccc(S(=O)(=O)O)cc3)c(S(=O)(=O)O)cc12 ?
// result 537^c nm

// query # lookup: λabs of CN(CCCC(=O)O)C(=O)c1c(-c2c3cc/c(=N/Cc4ccc(S(=O)(=O)O)cc4S(=O)(=O)O)c(S(=O)(=O)O)c-3oc3c(S(=O)(=O)O)c(NCc4ccc(S(=O)(=O)O)cc4S(=O)(=O)O)ccc23)cc(S(=O)(=O)O)cc1S(=O)(=O)O
// result 530^c nm

// query Returns the measured λabs for the input molecule. Input: CCN(Cc1ccccc1S(=O)(=O)O)c1ccc2c(-c3ccccc3C(=O)O)c3cc/c(=[N+](\CC)Cc4ccccc4S(=O)(=O)O)cc-3oc2c1
// result 554^c nm

// query Which λabs is listed for CN(CCCC(=O)O)C(=O)c1ccccc1-c1c2cc/c(=N/Cc3ccc(S(=O)(=O)O)cc3S(=O)(=O)O)c(S(=O)(=O)O)c-2oc2c(S(=O)(=O)O)c(NCc3ccc(S(=O)(=O)O)cc3S(=O)(=O)O)ccc12 ?
// result 531^c nm

----------
Test Details: Absorption maximum of the dye
Format: physicochemical
Particulars: solvent ethanol
Measurement Name: λabs (nm)

CN(C)c1ccc2c(c1)C(C)(C)c1cc3c(cc1=C2NCCCCCC(=O)O)CCC[N+]=3Cc1ccc(S(=O)(=O)O)cc1S(=O)(=O)O = 468

(1) Cc1cc(=O)[nH]c2cc(NCS(=O)(=O)O)ccc12
(2) CN(CCCC(=O)O)C(=O)c1ccccc1C1=c2cc3c(cc2C(C)(C)c2c1cc1c4c2CCCN4CCC1)=[N+](Cc1ccc(S(=O)(=O)O)cc1S(=O)(=O)O)CCC3
// query Among 1 and 2 , whose measured λabs is the smaller figure? Pick one; state its label.
// result 1
(1: 355 nm, 2: 642 nm)

----------
Test Details: Absorption maximum of the dye
Format: physicochemical
Particulars: solvent PBS pH 7.4
Marks after values point to notes of the source that are not given here.
Measurement Name: λabs

Observe how each entry below is paired with its result.
Cc1c(CC(=O)O)c(=O)oc2cc(Nc3nc(Cl)nc(NCCS(=O)(=O)O)n3)ccc12 [Compound 112] = 338^b nm
CC[N+]1=c2cc3c(cc2C(CS(=O)(=O)O)=CC1(C)C)=C(c1c(F)c(F)c(SCCS(=O)(=O)O)c(F)c1F)c1cc2c(cc1C3(C)C)N(Cc1ccc(S(=O)(=O)O)cc1S(=O)(=O)O)CCC2 [Compound 42] = 682^b nm
CC[N+]1=c2cc3c(cc2C(CS(=O)(=O)O)=CC1(C)C)=C(c1c(F)c(F)c(SCC(=O)O)c(F)c1F)c1cc2c(cc1C3(C)C)N(Cc1ccc(S(=O)(=O)O)cc1S(=O)(=O)O)CCC2 [Compound 43] = 684^b nm

// query Using the record for CN(C)c1ccc2c(c1)C(C)(C)C1=C/C(=[N+](/C)Cc3ccc(S(=O)(=O)O)cc3S(=O)(=O)O)C=CC1=C2c1c(F)c(F)c(F)c(F)c1F [Compound 37] , report its λabs.
// result 642^b nm

// query Given the compound CC1=CC(C)(C)[N+](Cc2ccc(S(=O)(=O)O)cc2S(=O)(=O)O)=c2cc3c(cc21)=C(c1c(F)c(F)c(SCC(=O)O)c(F)c1F)c1ccc(Nc2ccc(S(=O)(=O)O)cc2)cc1C3(C)C [Compound 50] , what is its reported λabs?
// result 669^b nm

// query For the compound CN(CCCC(=O)O)C(=O)c1ccccc1C1=c2cc3c(cc2[Si](C)(C)c2cc4c(cc21)C(CS(=O)(=O)O)CC(C)(C)N4Cc1ccc(S(=O)(=O)O)cc1S(=O)(=O)O)=[N+](Cc1ccc(S(=O)(=O)O)cc1S(=O)(=O)O)C(C)(C)CC3CS(=O)(=O)O (centres unmarked) [Compound 73] , what λabs is on record?
// result 686^b nm

// query What measured λabs goes with CCN1c2cc3c(cc2C(CS(=O)(=O)O)=CC1(C)C)C(c1n(C)cc[n+]1CCCCS(=O)(=O)O)=c1cc2c(cc1C3(C)C)=[N+](Cc1ccc(S(=O)(=O)O)cc1S(=O)(=O)O)CCC2 [Compound 55] ?
// result 725^b nm

----------
Test Details: Absorption maximum of the dye
Assay type: physicochemical
Particulars: solvent water/acetonitrile 1:1
Marks after values point to notes of the source that are not given here.
Measurement Name: λabs

Some solved cases for reference:
CN(CCCC(=O)O)C(=O)c1cc2ccccc2cc1-c1c2cc/c(=N/Cc3ccc(S(=O)(=O)O)cc3S(=O)(=O)O)c(S(=O)(=O)O)c-2oc2c(S(=O)(=O)O)c(NCc3ccc(S(=O)(=O)O)cc3S(=O)(=O)O)ccc12.CS(=O)(=O)O.CS(=O)(=O)O [Compound 33] = 539^c nm
O=C(O)CN(CCS(=O)(=O)O)C(=O)c1ccccc1-c1c2cc/c(=N/Cc3ccc(S(=O)(=O)O)cc3S(=O)(=O)O)c(S(=O)(=O)O)c-2oc2c(S(=O)(=O)O)c(NCc3ccc(S(=O)(=O)O)cc3S(=O)(=O)O)ccc12 [Compound 30] = 536^c nm

// query Looking for the measured λabs of CN(CCCC(=O)O)C(=O)c1ccccc1-c1c2cc(S(=O)(=O)O)/c(=N/CCc3ccc(S(=O)(=O)O)cc3)cc-2oc2cc(NCCc3ccc(S(=O)(=O)O)cc3)ccc12 [Compound 22] , can you help?
// result 536^c nm
